Test system: HCT-15 colon
runDescription: NCI tumour cell line growth inhibition, 48 h
quantityKind: TGI

compound: CN1CCN(CC(=O)N2c3ccccc3Sc3cc4ccccc4cc32)CC1
quantityKind: TGI
reportedValue: 34.7 µM

compound: C[C@]12CCC(=O)CC1CC[C@@H]1C2CC[C@@]2(C)C1CC[C@@H]2OC(=O)CC[Se][Se]CCC(=O)O[C@H]1CCC2[C@@H]3CCC4CC(=O)CC[C@]4(C)C3CC[C@@]21C (stereo partly drawn)
quantityKind: TGI
reportedValue: 16 µM

compound: [Cl-].[Nd+3].[O-]/N=C(\c1ccccc1)c1ccccn1.[O-]/N=C(\c1ccccc1)c1ccccn1.[O-]/N=C(\c1ccccc1)c1ccccn1
quantityKind: TGI
reportedValue: > 100 µM

compound: NC1=NS(=O)(=O)Nc2nc(-c3ccc(Cl)cc3)[nH]c21
quantityKind: TGI
reportedValue: > 100 µM

compound: CC(=O)c1c2c(cc3c1CC1(C3)Cc3cc4c(c(C(=O)O)c3C1)CCCC4)CCCC2 (stereo not drawn) (tested in a mixture with another compound)
quantityKind: TGI
reportedValue: > 100 µM

compound: O=C(N/N=C/c1c(Cl)cccc1Cl)c1cccnc1Nc1cccc(C(F)(F)F)c1
quantityKind: TGI
reportedValue: > 100 µM

compound: c1ccc(C(NC2CCCCC2NCCNC2CCCCC2NC(c2ccccc2)(c2ccccc2)c2ccccc2)(c2ccccc2)c2ccccc2)cc1 (stereo not drawn)
quantityKind: TGI
reportedValue: > 100 µM

compound: O=C1CC2(CCC(O)(c3ccccc3)C(C(=O)c3ccccc3)C2)C(=O)c2ccccc2N1 (stereo not drawn)
quantityKind: TGI
reportedValue: > 100 µM

compound: O=C(Nc1ccc(Cl)cc1)c1cc2c(cc1Cl)Sc1nccn1S2(=O)=O
quantityKind: TGI
reportedValue: > 100 µM

compound: COC(=O)C1CCC2(C)[C@H](CCC3O[C@]32C)[C@@]1(C)CC(=O)c1ccoc1 (stereo partly drawn)
quantityKind: TGI
reportedValue: > 100 µM

compound: COc1cc2c(oc(=O)c3cc(C)cc(OC)c32)c2c(C3OC(C)C(O)C(C)(O)C3O)ccc(O)c12 (stereo not drawn)
quantityKind: TGI
reportedValue: 3.65 µM

compound: Nc1ccc(I)cn1
quantityKind: TGI
reportedValue: > 100 µM

compound: O=C(Nc1ccc([As]=[As]c2ccc(NC(=O)c3ccccc3)cc2)cc1)c1ccccc1 (stereo not drawn)
quantityKind: TGI
reportedValue: 1.36 µM

compound: CC1=C(c2cc(C(=O)Nc3cc(C)ccc3C)nc(N)n2)Sc2ccccc2N1
quantityKind: TGI
reportedValue: > 100 µM

compound: COc1cccc2c(Nc3ccc(S(=O)(=O)N=C(N)N)cc3)c3ccc([N+](=O)[O-])cc3nc12
quantityKind: TGI
reportedValue: > 100 µM

compound: CC12OC3(C)OC(=O)C(c4ccccc4)(O1)C3(C)O2 (stereo not drawn)
quantityKind: TGI
reportedValue: > 100 µM

compound: COC(=O)C1=C(C(=O)OC)C2(CCCCCC2=O)OC1=O (stereo not drawn)
quantityKind: TGI
reportedValue: > 100 µM

compound: C/C=C/[C@@H](C(=O)OC)N1C(=O)c2ccccc2[C@H]1O
quantityKind: TGI
reportedValue: > 100 µM
